Data provenance is patent US10174044B2.

Experimental System: GST-Xa-hAAK1 (Homo sapiens (Human), UniProt Q2M2I8)
Sequence (Q2M2I8 whole entry): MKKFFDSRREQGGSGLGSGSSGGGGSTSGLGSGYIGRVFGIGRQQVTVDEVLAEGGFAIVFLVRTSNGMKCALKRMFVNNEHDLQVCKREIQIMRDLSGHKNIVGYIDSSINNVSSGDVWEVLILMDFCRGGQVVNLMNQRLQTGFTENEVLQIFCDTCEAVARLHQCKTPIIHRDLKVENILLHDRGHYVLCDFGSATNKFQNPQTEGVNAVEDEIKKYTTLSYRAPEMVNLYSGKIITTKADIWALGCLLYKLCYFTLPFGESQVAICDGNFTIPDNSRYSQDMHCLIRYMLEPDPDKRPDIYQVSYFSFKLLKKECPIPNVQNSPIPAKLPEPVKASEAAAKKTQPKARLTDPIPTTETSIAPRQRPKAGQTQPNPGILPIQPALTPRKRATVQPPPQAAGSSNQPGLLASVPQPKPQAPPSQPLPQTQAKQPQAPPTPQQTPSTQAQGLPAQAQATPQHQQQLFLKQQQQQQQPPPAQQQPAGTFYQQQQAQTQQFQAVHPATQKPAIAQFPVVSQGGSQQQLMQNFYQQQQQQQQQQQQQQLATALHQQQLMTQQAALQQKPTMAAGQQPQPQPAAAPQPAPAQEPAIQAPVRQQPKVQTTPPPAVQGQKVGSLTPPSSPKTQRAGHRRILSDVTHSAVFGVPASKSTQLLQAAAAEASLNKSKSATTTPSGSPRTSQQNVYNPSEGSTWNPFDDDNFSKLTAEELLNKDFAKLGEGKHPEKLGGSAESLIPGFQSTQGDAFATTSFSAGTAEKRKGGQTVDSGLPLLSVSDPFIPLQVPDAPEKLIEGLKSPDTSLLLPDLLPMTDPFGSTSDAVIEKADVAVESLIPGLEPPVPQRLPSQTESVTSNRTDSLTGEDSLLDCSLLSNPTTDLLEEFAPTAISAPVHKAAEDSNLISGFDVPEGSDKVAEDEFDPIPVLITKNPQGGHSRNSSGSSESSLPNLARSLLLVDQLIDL
Reported Metric: IC50 (nM)

Sample answers from the record:
Compound | Uom | Value
Cc1cc2c(cc1OC[C@@H](N)CC(C)C)c(=O)n(C)c1cnccc21 [Example 3] | nM | 3.2
CC(C)CC(C)(N)COc1ccc2c(c1)COc1cnc(NCC(F)(F)F)cc1-2 (centres unmarked) [Example 42] | nM | 88
[2H]C([2H])(Oc1ccc2c(c1)c(=O)n(C)c1c(C)nccc21)C(C)(N)CC(C)C (centres unmarked) [Example 13] | nM | 117

1: CC(C)C[C@](C)(N)COc1ccc2c(c1)COc1c-2ccnc1N [Example 60]
2: COC(=O)Nc1ncc2c(c1Cl)-c1cc(F)c(OC[C@@](C)(N)CC(C)C)cc1CO2 [Example 58]
Ask: In the pair 1 and 2 , the larger recorded IC50 belongs to which? When you have decided, please share the label of that item.
Result: 2
(2: 18 nM, 1: 0.74 nM)

A: COC(=O)Nc1cc2c(cn1)OCc1c-2ccc(OC[C@@](C)(N)CC(C)C)c1F [Example 45]
B: CC(C)C[C@](C)(N)COc1ccc2c(c1)COc1cnc(NC(=O)OC(C)C)cc1-2 [Example 54]
Ask: Exercise: compare A and B ; which one has the greater IC50? API: response body contains the label of the selected item.
Result: B
(B: 2.1 nM, A: 0.91 nM)

P: Cc1cc2c3ccc(OC[C@@](C)(N)CC(C)C)c(C)c3c(=O)n(C)c2cn1 [Example 20]
Q: Cc1nccc2c3cc(Cl)c(OC[C@@H](N)CC(C)C)cc3c(=O)n(C)c12 [Example 5]
R: CCOC(=O)Nc1cc2c(cn1)OCc1cc(OC[C@@](C)(N)CC(C)C)ccc1-2 [Example 41]
S: CC(C)C[C@H](N)COc1ccc2c(c1)c(=O)[nH]c1cnccc12 [Example 1]
T: CC(C)C[C@](C)(N)COc1ccc2c(c1)COc1cnc(S(C)(=O)=O)cc1-2 [Example 59]
Ask: Order the entries by their reported IC50, beginning at the minimum. Rank them, then answer with their labels in that order.
Result: R, P, S, Q, T
